- studySystem: wild type NTRK1 enzyme (Homo sapiens (Human), UniProt P04629)
- Sequence (P04629 33-796): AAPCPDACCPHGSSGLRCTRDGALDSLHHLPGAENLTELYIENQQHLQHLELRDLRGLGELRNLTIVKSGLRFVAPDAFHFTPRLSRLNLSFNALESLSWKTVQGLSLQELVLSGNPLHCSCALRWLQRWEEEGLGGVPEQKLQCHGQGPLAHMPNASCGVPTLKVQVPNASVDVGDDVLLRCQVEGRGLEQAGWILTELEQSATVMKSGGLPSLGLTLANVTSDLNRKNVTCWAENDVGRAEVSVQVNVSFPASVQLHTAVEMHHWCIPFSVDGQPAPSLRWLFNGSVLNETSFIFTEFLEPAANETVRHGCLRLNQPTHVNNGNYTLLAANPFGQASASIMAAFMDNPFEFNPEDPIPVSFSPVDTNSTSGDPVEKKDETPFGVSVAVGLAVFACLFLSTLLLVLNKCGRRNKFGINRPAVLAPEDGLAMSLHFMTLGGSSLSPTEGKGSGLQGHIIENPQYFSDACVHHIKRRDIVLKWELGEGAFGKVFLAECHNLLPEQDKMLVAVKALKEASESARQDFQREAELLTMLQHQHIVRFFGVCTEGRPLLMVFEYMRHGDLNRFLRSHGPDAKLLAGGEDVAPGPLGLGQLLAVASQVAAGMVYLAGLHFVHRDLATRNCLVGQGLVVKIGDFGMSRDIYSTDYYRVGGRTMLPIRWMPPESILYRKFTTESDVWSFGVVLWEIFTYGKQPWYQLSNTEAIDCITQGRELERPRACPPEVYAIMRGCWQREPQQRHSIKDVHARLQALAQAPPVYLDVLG
- protocolText: NTRK1 Wild Type Assay at 1 mM ATP
- Assay type: biochemical
- appliedConditions: wild type NTRK1, 1 mM ATP; read-out: NTRK1 IC50
# IC50 values compiled below

Example cases with answers are listed next.
>>> observedmeasurement("Cn1cc(F)cc([C@H]2C[C@H](F)CN2c2ccn3ncc(C#N)c3n2)c1=O [Compound 8]")
"10 to 100 nM"
>>> observedmeasurement("CN(C)C(=O)c1cc(F)cc([C@H]2C[C@H](F)CN2c2ccn3ncc(C#N)c3n2)c1 [Compound 21]")
"10 to 100 nM"
>>> observedmeasurement("N#Cc1cnn2ccc(N3C[C@@H](C#N)C[C@@H]3c3cc(F)ccc3F)nc12 [Compound 5]")
"10 to 100 nM"
>>> observedmeasurement("N#Cc1cnn2ccc(N3CC(F)(F)C[C@@H]3c3cncc(F)c3)nc12 [Compound 3]")
"10 to 100 nM"
>>> observedmeasurement("COc1ncc(F)cc1[C@H]1C[C@H](F)CN1c1ccn2ncc(C#N)c2n1 [Compound 7]")
"< 10 nM"
>>> observedmeasurement("N#Cc1cnn2ccc(N3C[C@@H](F)C[C@@H]3c3cc(F)cc(Cl)c3)nc12 [Compound 9]")
"< 10 nM"
>>> observedmeasurement("N#Cc1cnn2ccc(N3C[C@@H](F)C[C@@H]3c3cc(F)ccc3OC(F)(F)F)nc12 [Compound 17]")
"< 10 nM"

Now examine the next entry.
Ask: Item under review: N#Cc1cnn2ccc(N3C[C@@H](F)C[C@@H]3c3cncc(F)c3)nc12 [Compound 1] . Reported IC50?
Reply: < 10 nM
